Each recorded value in this set is attributed to the supplement of paper PMC3724861.

- Test system: Caupolican (Caup) homeodomain DNA-binding domain
- Sequence: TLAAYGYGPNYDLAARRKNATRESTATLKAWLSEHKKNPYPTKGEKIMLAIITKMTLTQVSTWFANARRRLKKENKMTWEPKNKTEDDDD
- PROTOCOL: PBM E-score (8-mer, recovered from the published 9-mer minima) (E-score (dimensionless, -0.5 to 0.5)); Drosophila protein; higher = stronger relative binding preference, active = 0.31 or more
Only a selection was taken, and hits are over-represented in it overall. The true hit rate is not given.
Consider the following partition of reported PBM E-score into named classes: group A (below 0.04), group B (0.04 to below 0.3), group C (0.3 or more)

Example results:
| SEQUENCE CONTENT | MEASURED ON | ANSWER LABEL |
| --- | --- | --- |
| CTACATGC | Caupolican (Caup) homeodomain DNA-binding domain | group C |
| ACTGCGAA | Caupolican (Caup) homeodomain DNA-binding domain | group A |
| AACGAATG | Caupolican (Caup) homeodomain DNA-binding domain | group A |
| ATACATGA | Caupolican (Caup) homeodomain DNA-binding domain | group C |
| ATACAGGA | Caupolican (Caup) homeodomain DNA-binding domain | group B |
| CATAGCCG | Caupolican (Caup) homeodomain DNA-binding domain | group A |
| CTACATCC | Caupolican (Caup) homeodomain DNA-binding domain | group B |
| ATACATGC | Caupolican (Caup) homeodomain DNA-binding domain | group C |

Class label required: ATGCATGC
group B

Check ATACATCG too.
group B
